system: 786-0; assay: NCI tumour cell line growth inhibition, 48 h
Activity calls are given as the source filed them. No stated cut-off is given here; in the data, active = GI50 up to about 1.1 µM and inactive = higher.
Classes used: active, inactive

{"columns": ["Compound", "Assigned Class"],
 "data": [
  ["O=C1c2ccccc2C(=O)N1CCN(CCN1C(=O)c2ccccc2C1=O)Cn1cccn1", "inactive"],
  ["O=C(O)C(Cc1cccs1)C(=O)O", "inactive"],
  ["O=C(O[C@H](/C=C/c1ccccc1)P1(=O)N(Cc2ccccc2)[C@H]2CCCC[C@@H]2N1Cc1ccccc1)c1ccccc1", "inactive"],
  ["Cn1cncc1CC1COC(=O)C1C(O)c1ccccc1 (configuration not stated)", "inactive"],
  ["CC1=C(C(=O)NC2CCCCC2)CC(C(=O)NC2CCCCC2)=C(C)N1", "inactive"],
  ["CC1=NN(C(=O)CC(=O)Nc2cccc(C)c2)C(=O)C1/N=N/c1ccc(S(=O)(=O)CCOS(=O)(=O)O)cc1 (configuration not stated)", "active"],
  ["CCOC(=N)n1c(=O)n(C2=NCCN2)c2ccccc21", "inactive"],
  ["N#CC12C(=O)N3C(=NC(c4ccccc4)NC3c3ccccc3)C1(C#N)C(c1ccccc1)NC1=C2CCC1 (configuration not stated)", "inactive"],
  ["C[C@]12CC[C@H](O)C[C@H]1CC[C@@H]1[C@@H]2CC[C@]2(C)[C@@H](C3=CC(=O)OC3)CC[C@]12O", "active"],
  ["CC(CO)(CO)N1C(=O)C2C3C=CC(C3)C2C1=O (configuration not stated)", "inactive"],
  ["Cc1c(S(=O)(=O)/N=C(\\NN)Nc2ccc(Cl)cc2)sc2ccc(Cl)cc12", "inactive"],
  ["CN[C@@H](C)[C@@H](NC)c1ccccc1", "inactive"]
]}
